Please go through the items and note down their IC50.
# System: H460 non-cell lung cancer human tumor cell line
# Test Description: In vitro human tumor cell line cytotoxicity (proliferation) assay, AlamarBlue
# Type: cell-based
# Run Parameters: H460 cells, under air, 2 hrs exposure, wash, then 70 hrs growth; read-out: IC50 (air)
All answers are understood in µM, so give the number only.

input: I have this compound here, CC(OP(=O)(N1CC1)N1CC1)c1ncc([N+](=O)[O-])n1C (centres unmarked) [compound 2551] , and I need its recorded IC50.
output: 20

input: # input compound: CC(OP(=O)(N1CC1)N1CC1)c1ncc([N+](=O)[O-])n1C (centres unmarked) [compound 2552] ; wanted: its IC50
output: 23

input: What does the record list as IC50 for CC(OP(=O)(N1CC1)N1CC1)c1ccc([N+](=O)[O-])c(-n2ccnc2)c1 (centres unmarked) [compound 2703] ?
output: 99

input: Consider the compound CC(OP(=O)(N1CC1)N1CC1)c1ccc([N+](=O)[O-])c(-n2ccnc2)c1 (centres unmarked) [compound 2804] and give its measured IC50.
output: 310

input: # lookup: IC50 of CC(OP(=O)(N1CC1)N1CC1)c1ccc([N+](=O)[O-])c(-n2ccnc2)c1 (centres unmarked) [compound 2803]
output: 150

input: Field request: IC50 | item: CC(C)C(OP(=O)(N1CC1)N1CC1)c1ncc([N+](=O)[O-])n1C (centres unmarked) [compound 2568]
output: 350

input: I am curious: what IC50 value has been reported for CC(C)C(OP(=O)(N1CC1)N1CC1)c1ncc([N+](=O)[O-])n1C (centres unmarked) [compound 2567] ?
output: 270

input: Looking for the measured IC50 of O=[N+]([O-])c1ccc2c(c1)CCCC2OP(=O)(N1CC1)N1CC1 (centres unmarked) [compound 2676] , can you help?
output: 3.7
